# key: entry, value: pIC50
molecular target: HLA-DRB1*0404 (human); test: competition
Value format note: pIC50 is -log10 of concentration (mol/L); just state the number.

Some binders with recorded pIC50:
> print(dat)
                                     binder  metric  quantitativereadout
1     FYTLHVIKSDLVNEE [CEA.119 (9019.0114)]   pIC50                 6.77
2      TAKLTIESTPFNVAE [CEA.33 (9019.0106)]   pIC50                 7.39
3  ERGPLEHLYSLHIPN [IGFBP2.249 (9019.0190)]   pIC50                 7.54

Okay, next one:
Exam item: Quick one: pIC50 of LLTFWNPPTTAKLTI [CEA.24 (9019.0105)] ?
Marked response: 7.28
